Biological target: RecA (Escherichia coli, UniProt P0A7G6)
Sequence (P0A7G6 2-353): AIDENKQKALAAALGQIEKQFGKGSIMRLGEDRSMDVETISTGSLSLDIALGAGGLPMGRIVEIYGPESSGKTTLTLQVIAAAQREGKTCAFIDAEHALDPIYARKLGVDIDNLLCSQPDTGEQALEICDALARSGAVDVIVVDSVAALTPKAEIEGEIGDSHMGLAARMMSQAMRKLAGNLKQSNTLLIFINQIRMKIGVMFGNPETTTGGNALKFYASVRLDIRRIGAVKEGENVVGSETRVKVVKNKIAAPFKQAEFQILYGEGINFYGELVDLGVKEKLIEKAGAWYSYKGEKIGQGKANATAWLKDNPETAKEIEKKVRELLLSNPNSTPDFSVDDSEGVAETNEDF
recorded endpoint: pIC50
Numbers only, as −log10 of the molar value.

Prompt: Reported pIC50, molecule `CN1CCN(c2ccc(N3C(=O)C=CC3=O)cc2)CC1` : ____
Completion: 5.11
